The reported numbers originate from patent US20210380703A1.

Attribute: optical density
Target: T1, human ACVR2A (human, UniProt P27037 20-135, limits assumed); also: test concentration or dose not given here
T1 construct: also called activin receptor, type II A
T1 sequence (P27037 20-135 limits assumed): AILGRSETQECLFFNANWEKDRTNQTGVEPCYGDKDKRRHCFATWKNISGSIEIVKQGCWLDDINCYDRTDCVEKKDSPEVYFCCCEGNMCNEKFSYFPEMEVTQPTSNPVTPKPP
Assay: ELISA
Procedure: The binding of ACVR2A-specific monoclonal antibodies to human ACVR2A, mouse ACVR2A, biotinylated goat anti-human kappa light chain (positive control) and human Fc (negative control) were determined by ELISA.
Readout: optical density (OD)

• 366_C05 (antibody, V domains shown, Group II) VH: EVQLLESGGGLVQPGGSLRLSCAASGFTFDDYGMHWVRQAPGKGLEWVSSINYNGGYTGYADSVKGRFTISRDNSKNTLYLQMNSLRAEDTAVYYCARAATWHDTHLDYWGQGTLVTVSS VL: DIQMTQSPSSLSASVGDRVTITCRASQSIISYLNWYQQKPGKAPKLVIYAATSRASGVPSRFSGSGSGTDFTLTISSLQPEDFATYYCQQSYDSPLTFGGGTKVEIK = 2.01
• 367_H08 (antibody, V domains shown, Group II) VH: EVQLLESGGGLVQPGGSLRLSCAASGFTFDSYGMNWVRQAPGKGLEWVSSINYNGGYTSYADSVKGRFTISRDNSKNTLYLQMNSLRAEDTAVYYCARAATWHDTHLDYWGQGTLVTVSS VL: DIQMTQSPSSLSASVGDRVTITCRASQSILTYVNWYQQKPGKAPKLLIYAATSRHSGVPSRFSGSGSGTDFTLTISSLQPEDFATYYCQQSYNLPLTFGGGTKVEIK = 2.27
• 371_A09 (antibody, V domains shown, Group I) VH: EVQLLESGGGLVQPGGSLRLSCAASGFTFSSYGMNWVRQAPGKGLEWVSGINYNGGYKSYADSVKGRFTISRDNSKNTLYLQMNSLRAEDTAVYYCARAANWHDTALDYWGQGTLVTVSS VL: DIQMTQSPSSLSASVGDRVTITCRASQSIVTYVNWYQQKPGKAPKLVIYAATSRASGVPSRFSGSGSGTDFTLTISSLQPEDFATYYCQQSYDSPLTFGGGTKVEIK = 1.85
